target: Recombinant human Gal3 (rhGal3) (TrueBinding, #QC200361) (human, UniProt P17931 2-250); test: cell-based or functional assay; further: test concentration or dose not given here
measured metric: % inhibition of IL-6 secretion
Write the numeric value and follow it with the unit.

6B3.2D3 (antibody, human IgG4 S228P, kappa, V domains shown) VH: QVQLKQSGPGLVQPSQSLSITCTVSGFSLTSYGVHWVRQPPGKGLEWLGVIWSGGSTDYNAAFISRLSISKDNSKSQVFFKMNSLQADDTAIYYCAKGPYDYDLGWFAYWGQGTLVTVSA VL: SIVMTQTPKFLLVSAGDRVTITCKASQSVSNDVAWYQQKPGQSPKLLIYYASNRYTGVPDRFTGSGYGTDFTFTISTVQAEDLAVYFCQQDYTSPYTFGGGTKLEIKR; 0.2%

Now for the binder whose % inhibition of IL-6 secretion we want.
query: What % inhibition of IL-6 secretion value was documented for this binder, 849.1D2 (antibody, V domains shown) VH: QVQLKESGPVLVAPSQSLSITCTVSGFSLSSYGVHWVRQPPGKGLEWLGVIWAGGSTDYDSALMSRLSISKDNSKSQVFLKMDSLQTDDTAMYYCAKPPYDYDGAWFAYWGQGTLVTVSA VL: DVVMTQTPKFLLVSAGDRVTITCKASQSVSSDVAWYQQKPGQSPKLLIYFASNRYTGVPDRFTGSGYGTDFTFTISTVQAEDLAVYFCQHNYISPFTFGGGTKLEIK ?
result: 26.8%
